- Test system: Escherichia coli TOP10
- testProtocol: shrunken log2 fold change of peptide-encoding DNA abundance (4.5 h post-induction vs induction); higher = less antimicrobial activity (less host growth inhibition)
- statedConditions: time post-induction: 4.5 h; library: site-saturation at positions 5, 18, 19, 20
experimentalReadout: shrunken log2 fold change
Give the figure only, with no unit attached.

stdin: # lookup: Escherichia coli TOP10 shrunken log2 fold change, key = "RRIRIRPPRLPRPRPRPNGWPRP"
stdout: 0.101

stdin: Recall the reported shrunken log2 fold change of "RRIRERPPRLPRPRPRPSFCPRP" when tested on Escherichia coli TOP10.
stdout: -0.593

* * *

Here the recorded shrunken log2 fold change is given for each entry.
- Tested on: Escherichia coli TOP10
- testProtocol: shrunken log2 fold change of peptide-encoding DNA abundance (4.5 h post-induction vs induction); higher = less antimicrobial activity (less host growth inhibition)
- statedConditions: time post-induction: 4.5 h; library: site-saturation at positions 5, 18, 19, 20
Answer as a number with no unit attached.

sequenceInput	measuredTarget	experimentalReadout	valueObserved
RRIRQRPPRLPRPRPRPESWPRP	Escherichia coli TOP10	shrunken log2 fold change	0.461
RRIRMRPPRLPRPRPRPRYGPRP	Escherichia coli TOP10	shrunken log2 fold change	0.0305
RRIRGRPPRLPRPRPRPPRMPRP	Escherichia coli TOP10	shrunken log2 fold change	0.608
RRIRHRPPRLPRPRPRPCYVPRP	Escherichia coli TOP10	shrunken log2 fold change	-1.53
RRIRARPPRLPRPRPRPVRSPRP	Escherichia coli TOP10	shrunken log2 fold change	0.345
RRIRWRPPRLPRPRPRPEDVPRP	Escherichia coli TOP10	shrunken log2 fold change	0.0895
RRIRKRPPRLPRPRPRPCHPPRP	Escherichia coli TOP10	shrunken log2 fold change	-0.336
RRIRYRPPRLPRPRPRPSKSPRP	Escherichia coli TOP10	shrunken log2 fold change	-0.257

stdin: Tell me measured shrunken log2 fold change for "RRIRMRPPRLPRPRPRPIRQPRP" please.
stdout: -0.0521

stdin: Look up shrunken log2 fold change of "RRIRCRPPRLPRPRPRPPIQPRP" and report it.
stdout: 0.369

stdin: Provide shrunken log2 fold change value for the following sequence: "RRIRPRPPRLPRPRPRPDYGPRP"
stdout: 0.014

stdin: Tell me its shrunken log2 fold change given "RRIRHRPPRLPRPRPRPGCGPRP" as the entry.
stdout: 0.417

stdin: Give the measured shrunken log2 fold change for "RRIRDRPPRLPRPRPRPTFQPRP"
stdout: 0.0497

stdin: Please give measured shrunken log2 fold change of the following entry: "RRIRQRPPRLPRPRPRPFIQPRP"
stdout: -0.321

stdin: Report shrunken log2 fold change for "RRIRVRPPRLPRPRPRPGMHPRP"
stdout: -0.00805

* * *

- System: Escherichia coli TOP10;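 further: peptides expressed intracellularly from a pBAD plasmid library in pooled LB shake-flask culture, induced with 0.3% L-arabinose, DNA abundance read by NGS, three biological replicates, DESeq2 with apeglm shrinkage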
- testProtocol: shrunken log2 fold change of peptide-encoding DNA abundance (4.5 h post-induction vs induction); higher = less antimicrobial activity (less host growth inhibition)
- statedConditions: time post-induction: 4.5 h; library: site-saturation at positions 5, 18, 19, 20
experimentalReadout: shrunken log2 fold change
Number, no unit, nothing else.

Examples with answers:
sequenceInput	measuredTarget	valueObserved
RRIRLRPPRLPRPRPRPNKKPRP	Escherichia coli TOP10	-0.256
RRIRNRPPRLPRPRPRPMCTPRP	Escherichia coli TOP10	-0.124
RRIRHRPPRLPRPRPRPTETPRP	Escherichia coli TOP10	0.146
RRIRARPPRLPRPRPRPRCKPRP	Escherichia coli TOP10	0.51

stdin: Read off the recorded shrunken log2 fold change for "RRIRSRPPRLPRPRPRPNRSPRP"
stdout: -0.0737

stdin: Report measured shrunken log2 fold change; entry is "RRIRLRPPRLPRPRPRPEQKPRP"
stdout: 0.0115

stdin: Give shrunken log2 fold change for "RRIRLRPPRLPRPRPRPWPCPRP"
stdout: 0.209

stdin: Tell me measured shrunken log2 fold change for "RRIRTRPPRLPRPRPRPTITPRP" please.
stdout: 0.184

stdin: Please give measured shrunken log2 fold change of the following entry: "RRIRLRPPRLPRPRPRPQPDPRP"
stdout: -0.161

stdin: Give reported shrunken log2 fold change value for "RRIRMRPPRLPRPRPRPTYSPRP"
stdout: 0.0196

stdin: Please indicate shrunken log2 fold change recorded for "RRIRKRPPRLPRPRPRPSPNPRP"
stdout: 1.52

stdin: State its shrunken log2 fold change: "RRIRHRPPRLPRPRPRPYATPRP"
stdout: -0.172

stdin: State its shrunken log2 fold change: "RRIRARPPRLPRPRPRPHGFPRP"
stdout: -0.00228

stdin: Please give the documented shrunken log2 fold change of "RRIRRRPPRLPRPRPRPMCRPRP"
stdout: 0.37

stdin: Give the reported value of shrunken log2 fold change for this record: "RRIRRRPPRLPRPRPRPERCPRP"
stdout: 0.322
